Molecular target: UniProtKB P49327
Sequence (P49327 whole entry): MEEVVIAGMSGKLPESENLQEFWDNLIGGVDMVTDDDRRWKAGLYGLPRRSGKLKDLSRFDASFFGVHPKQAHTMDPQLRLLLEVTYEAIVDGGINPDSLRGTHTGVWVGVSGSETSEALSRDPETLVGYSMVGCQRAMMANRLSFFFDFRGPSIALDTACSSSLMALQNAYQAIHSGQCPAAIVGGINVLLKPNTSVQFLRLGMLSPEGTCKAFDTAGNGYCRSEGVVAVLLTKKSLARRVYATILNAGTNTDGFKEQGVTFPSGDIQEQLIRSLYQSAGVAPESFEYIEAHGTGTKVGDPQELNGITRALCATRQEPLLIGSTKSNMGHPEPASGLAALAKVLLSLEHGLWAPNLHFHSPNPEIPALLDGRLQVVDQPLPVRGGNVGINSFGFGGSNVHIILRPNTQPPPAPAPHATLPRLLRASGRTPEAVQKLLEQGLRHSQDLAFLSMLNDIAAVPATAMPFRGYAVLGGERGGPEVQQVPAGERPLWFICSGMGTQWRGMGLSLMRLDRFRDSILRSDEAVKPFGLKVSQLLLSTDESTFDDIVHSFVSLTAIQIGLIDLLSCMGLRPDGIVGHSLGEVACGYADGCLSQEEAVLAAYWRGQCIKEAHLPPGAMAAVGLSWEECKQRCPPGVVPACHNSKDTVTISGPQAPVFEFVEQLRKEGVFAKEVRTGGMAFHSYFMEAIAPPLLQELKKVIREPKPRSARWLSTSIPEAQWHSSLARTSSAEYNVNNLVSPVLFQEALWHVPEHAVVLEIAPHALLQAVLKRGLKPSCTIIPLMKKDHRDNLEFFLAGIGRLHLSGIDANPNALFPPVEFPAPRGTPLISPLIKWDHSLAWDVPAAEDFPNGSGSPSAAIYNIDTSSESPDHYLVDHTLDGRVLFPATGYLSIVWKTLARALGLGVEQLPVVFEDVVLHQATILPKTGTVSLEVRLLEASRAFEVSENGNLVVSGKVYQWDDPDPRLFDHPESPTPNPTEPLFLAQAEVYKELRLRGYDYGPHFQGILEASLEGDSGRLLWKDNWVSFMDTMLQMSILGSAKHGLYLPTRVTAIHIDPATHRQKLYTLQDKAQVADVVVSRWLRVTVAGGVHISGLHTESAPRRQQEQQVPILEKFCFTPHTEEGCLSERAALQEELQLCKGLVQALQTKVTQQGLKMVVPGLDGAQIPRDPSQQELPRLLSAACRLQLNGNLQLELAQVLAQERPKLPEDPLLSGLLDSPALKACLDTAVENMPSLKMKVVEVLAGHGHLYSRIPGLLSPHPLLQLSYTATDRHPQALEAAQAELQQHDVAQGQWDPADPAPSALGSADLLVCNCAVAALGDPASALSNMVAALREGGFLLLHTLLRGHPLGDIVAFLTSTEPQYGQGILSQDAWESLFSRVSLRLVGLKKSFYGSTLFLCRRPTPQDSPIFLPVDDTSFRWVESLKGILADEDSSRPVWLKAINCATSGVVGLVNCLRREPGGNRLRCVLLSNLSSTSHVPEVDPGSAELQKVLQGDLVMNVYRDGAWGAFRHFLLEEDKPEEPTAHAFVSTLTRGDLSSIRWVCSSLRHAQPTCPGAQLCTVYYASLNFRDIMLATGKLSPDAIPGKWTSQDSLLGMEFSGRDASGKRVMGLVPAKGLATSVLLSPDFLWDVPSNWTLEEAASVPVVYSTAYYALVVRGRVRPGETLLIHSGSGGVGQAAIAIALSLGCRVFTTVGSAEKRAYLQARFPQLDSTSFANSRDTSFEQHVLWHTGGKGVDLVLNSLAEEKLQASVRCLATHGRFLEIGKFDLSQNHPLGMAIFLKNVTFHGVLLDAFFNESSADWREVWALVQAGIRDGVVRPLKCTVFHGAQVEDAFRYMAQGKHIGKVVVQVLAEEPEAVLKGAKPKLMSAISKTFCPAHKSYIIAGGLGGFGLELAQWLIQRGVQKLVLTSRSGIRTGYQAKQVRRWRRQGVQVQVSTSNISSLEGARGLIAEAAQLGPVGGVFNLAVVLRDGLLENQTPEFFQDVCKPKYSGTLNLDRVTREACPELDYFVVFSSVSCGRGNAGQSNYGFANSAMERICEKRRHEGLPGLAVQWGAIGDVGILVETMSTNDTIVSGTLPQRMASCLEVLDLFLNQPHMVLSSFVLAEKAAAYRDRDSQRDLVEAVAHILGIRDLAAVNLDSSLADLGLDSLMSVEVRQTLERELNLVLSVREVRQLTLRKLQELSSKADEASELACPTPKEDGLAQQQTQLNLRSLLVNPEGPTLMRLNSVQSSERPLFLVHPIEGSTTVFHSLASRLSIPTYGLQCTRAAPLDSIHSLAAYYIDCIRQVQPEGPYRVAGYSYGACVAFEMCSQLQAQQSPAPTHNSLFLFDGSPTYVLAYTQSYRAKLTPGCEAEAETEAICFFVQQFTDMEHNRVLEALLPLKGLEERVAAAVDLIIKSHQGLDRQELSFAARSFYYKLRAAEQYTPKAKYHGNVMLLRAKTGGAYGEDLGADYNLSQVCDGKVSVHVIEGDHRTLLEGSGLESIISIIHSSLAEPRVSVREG
Assay: inhibition of human FAS-TE enzyme activity – biochemical, kinetic fluorescence intensity, dose response (AID 624326);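 also: rate of fluorescence rise from hydrolysis of a fluorogenic O-methyl fluorescein ester substrate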
Type: functional
Activity calls are given as the source filed them. Rule as the data show it: active = IC50 of 20 µM or less and inactive = more.
TEST READOUT: IC50

The cases that follow already have their IC50 on record.
MOLECULE	READING
Cc1cc(Br)ccc1NC(=O)C(C)c1ccc([N+](=O)[O-])cc1 (configuration not stated)	18.8 µM (active)
CC(C)C[C@H](NC(=O)c1[nH]cnc1C(=O)NC1CCN(C(=O)OC(C)(C)C)CC1)C(=O)OCc1ccccc1	6.28 µM (active)
O=C(OCC(=O)N1CCc2ccccc2C1)c1ccc(Cl)c([N+](=O)[O-])c1	2.41 µM (active)

**Q:** Provide the documented IC50 with UniProtKB P49327 as the system for `Fc1c(F)c(C(F)(F)F)c(F)c(F)c1N/N=C\c1cccs1`
**A:** 10.2 µM (active)

**Q:** Lab note: need IC50 for `CC(C)(C)OC(=O)CNC(=O)c1[nH]cnc1C(=O)N[C@@H](CCCCNC(=O)OC(C)(C)C)C(=O)OC(C)(C)C` on UniProtKB P49327, anyone have it?
**A:** 0.364 µM (active)

**Q:** Give IC50 (UniProtKB P49327) of the following molecule: `CC(C)(C)c1ccc(OCCC(=O)OCC(=O)NCc2ccccc2)cc1`
**A:** 6.7 µM (active)

**Q:** Lab note: need IC50 with UniProtKB P49327 for entry `O=[N+]([O-])c1c(Nc2cccc(O)c2)cc(Cl)c2nonc12` , please look it up.
**A:** 3.24 µM (active)
